Biological target: T1, Tetrahymena thermophila MTA1 (TthMTA1), untagged
T1 chain: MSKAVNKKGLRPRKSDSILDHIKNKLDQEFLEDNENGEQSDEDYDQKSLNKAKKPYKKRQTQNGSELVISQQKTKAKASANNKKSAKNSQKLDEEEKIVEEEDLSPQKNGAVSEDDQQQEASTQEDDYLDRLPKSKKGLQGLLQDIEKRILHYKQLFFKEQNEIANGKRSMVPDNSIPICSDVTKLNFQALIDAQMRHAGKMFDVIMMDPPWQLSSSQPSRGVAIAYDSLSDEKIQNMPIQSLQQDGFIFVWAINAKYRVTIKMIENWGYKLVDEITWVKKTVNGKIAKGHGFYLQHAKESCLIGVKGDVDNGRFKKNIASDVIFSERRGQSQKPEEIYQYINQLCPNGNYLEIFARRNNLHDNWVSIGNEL
Experiment: GST pull-down
Details: chain shown with the change;; parent: 100

binder	percent of parent
His6GST-Tthp1 L167A; L170A; L173A (protein) MSLKKGKFQHNQSKSLWNYTLSPGWREEEVKILKSALQLFGIGKWKKIMESGCLPGKSIGQIYMQTQRLLGQQSLGDFMGLQIDLEAVFNQNMKKQDVLRKNNCIINTGDNPTKEERKRRIEQNRKIYGLSAKQIAEIKLPKVKKHAPQYMTLEDIENEKFTNLEIATHAYNAKAEIVRRLAEQGETIAQPSIIKSLNNLNHNLEQNQNSNSSTETKVTLEQSGKKKYKVLAIEETELQNGPIATNSQKKSINGKRKNNRKINSDSEGNEEDISLEDIDSQESEINSEEIVEDDEEDEQIEEPSKIKKRKKNPEQESEEDDIEEDQEEDELVVNEEEIFEDDDDDEDNQDSSEDDDDDED	0%

These entries and their values trace back to paper PMC9174199.
